Experiment: Evaluation of the pharmacokinetics in female Balb/c mice (IV and PO)
Type: in vivo
Conditions: mouse, plasma; IV 2 mg/kg, female Balb/c mice; read-out: Vdss
Experimental: […] About 30 μL blood samples were collected from the jugular vein at 0.0833, 0.25, 0.5, 1.0, 2.0, 4.0, 8.0, 24 h after administration and from the tail vein at 0.25, 0.5, 1.0, 2.0, 4.0, 8.0, 24 h after administration, and the blood samples were put in an anticoagulation tube containing EDTA-K2, the plasma was separated by centrifugation. […]
Structures can show the parent of a compound that is named as a salt.
measure: Vd
Show the value, then the unit it is measured in.

# lookup: Vd of Cn1cc(-c2ccn3c(-c4cc(NS(=O)(=O)C5CC5)nc(-c5ccc(F)cc5F)c4)cnc3c2)cn1 [Trifluoroacetate salt of compound 1]
0.667 L/kg
